Target: cyno LAIR-1-CD3ζ chimeric receptor on NFAT-GFP reporter cells (cynomolgus monkey; human)
Sequence (P20963 other isoform, or with tags, fused parts or gaps mutant limits assumed): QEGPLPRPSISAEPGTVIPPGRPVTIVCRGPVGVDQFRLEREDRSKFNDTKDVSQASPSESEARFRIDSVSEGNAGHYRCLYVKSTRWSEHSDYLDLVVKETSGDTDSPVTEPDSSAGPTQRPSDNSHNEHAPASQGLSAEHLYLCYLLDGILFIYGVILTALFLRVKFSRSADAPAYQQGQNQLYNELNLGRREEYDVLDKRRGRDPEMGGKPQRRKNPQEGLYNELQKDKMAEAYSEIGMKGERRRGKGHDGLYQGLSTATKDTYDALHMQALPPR
Test: cell-based or functional assay
OBSERVABLE: IC50 (read off the curve): % GFP+ cyno LAIR-1 reporter cells on coated collagen 4

Can you share its IC50 (read off the curve): % GFP+ cyno LAIR-1 reporter cells on coated collagen 4? I mean this binder: humanized anti-LAIR-1 antibody Hz47H1.v4 (antibody, human IgG1, kappa, N297G, V domains shown, Humanized 47H1 with reengineered VH CDR2 and VL CDR2) VH: EVQLVESGGGLVQPGGSLRLSCAASGFTFNINAMNWVRQAPGKGLEWVARIRTKNYNYATFYADSVKDRFTISRDDSKNSLYLQMNSLKTEDTAVYYCVRDRAGFFAYWGQGTTVTVSS VL: DIQMTQSPSSLSASVGDRVTITCLASQTIGTWLGWYQQKPGKAPKLLIYAATSLAEGVPSRFSGSGSGTDFTLTISSLQPEDFATYYCQQLYSTPLTFGGGTKVEIKR ~0.08 nM
